Record form. Attribute: MFI_Max. Fill in for each entry.
Assayed System: T1, human CD3 on the cell surface (Jurkat cells, expanded human T cells, Jurkat-Lucia NFAT cells, human PBMC) (human, UniProt P07766 23-207; P04234 22-171; P09693 23-182)
T1 construct: whole, on cells; Endogenous CD3 within the TCR-CD3 complex on cells (also zeta chains and TCR); the cell type is named under assay
T1 sequence (P07766 23-207, chain 1 of 3): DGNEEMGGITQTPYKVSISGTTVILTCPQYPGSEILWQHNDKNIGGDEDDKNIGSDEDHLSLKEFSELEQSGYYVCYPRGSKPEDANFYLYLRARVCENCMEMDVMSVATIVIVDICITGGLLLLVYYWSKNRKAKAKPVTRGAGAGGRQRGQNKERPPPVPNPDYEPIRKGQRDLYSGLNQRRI
T1 sequence (P04234 22-171, chain 2 of 3): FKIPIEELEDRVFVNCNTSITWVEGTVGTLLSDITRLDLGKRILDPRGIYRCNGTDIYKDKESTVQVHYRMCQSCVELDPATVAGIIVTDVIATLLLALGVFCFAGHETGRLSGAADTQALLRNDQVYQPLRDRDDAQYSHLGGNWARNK
T1 sequence (P09693 23-182, chain 3 of 3): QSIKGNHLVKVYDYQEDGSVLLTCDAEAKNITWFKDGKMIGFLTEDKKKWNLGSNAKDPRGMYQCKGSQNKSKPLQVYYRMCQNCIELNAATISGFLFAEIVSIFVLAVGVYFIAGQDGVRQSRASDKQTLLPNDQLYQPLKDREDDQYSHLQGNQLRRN
Assay Overview: FACS, expanded human T cells
Please respond with the number in MFI and leave the unit unwritten.

Query string: Find the recorded MFI_Max belonging to 6-35.22 human-murine chimeric antibody (antibody, human IgG1, kappa, V domains shown, Human IgG1 chimera) VH: EVKLVESGGGLVQPGASLSLSCAASGFTFTDYYMSWVRQPPGKALEWLAMSRNKAKGHTIEYSSSVKGRFTISRDNSQSILYLQMNALRAEDSATYYCARDTYESYDGYFDVWGAGTTVIVSS VL: DIVMSQSPSSLAVSAGETVTMSCKSSQSLFNSRSRKNYLAWYQQKPGQTPKLLIYWASIRESGVPDRFTGSGSGTDFTLTISSVQAEDLAVYYCKQSYYLYTFGSGTKLEIKR and report it.
Result string: 8900

Query string: Find the recorded MFI_Max belonging to 6-44.5 human-murine chimeric antibody (antibody, human IgG1, kappa, V domains shown, Human IgG1 chimera) VH: EVQLQQSGPELVKPGASVKMSCKASGHTFTSHIMHWVKQKPGQGLEWIGYINPNNDRTEYSEKFKGKATLTSDKSSSTAYMELSSLTSEDSAVYYCAGEAYYSNSLYAMDYWGQGTSVTVSS VL: DIVMSQSPSSLAVSAGEKVTMSCKSSQSLFNSRTRKNYLAWYQQKPGQSPELLIYWASTRESGVPVRFTGSGSGTDFTLTISSVQAEDLAVYYCKQSYYLRTFGGGTKLEVKR and report it.
Result string: 13300

Query string: Find the recorded MFI_Max belonging to 5-7.13 human-murine chimeric antibody (antibody, human IgG1, kappa, V domains shown, Human IgG1 chimera) VH: QVQLQQPGTELVKPGASVKLSCKASGYTFTSYWVHWVKQRPGQGLEWIGNINPSDGVTNYNEKFKSRATLTVDKSSSTAYMQLSSLTSEDSAVYYCTRDAYGQYYFDDWGQGTTLTVSS VL: DIVMSQSPSSLVVSAGEKVTMSCKSSQSLLNSRTRKNYLAWYQQKPGQSPKLLIYWASVRDSGVPDRFTGSGSGTDFTLTISNVQAEDLAVYYCIQSYYLRTFGGGTILEIKR and report it.
Result string: 15900

Query string: Find the recorded MFI_Max belonging to 40G5c-hIgG1 (antibody, V domains shown) VH: EVQLVQSGAEVKKPGASVKVSCKASGYTFTNYYIHWVRQAPGQGLEWIGWIYPGDGNTKYNEKFKGRATLTADTSTSTAYLELSSLRSEDTAVYYCARDSYSNYYFDYWGQGTLVTVSS VL: DIVMTQSPDSLAVSLGERATINCKSSQSLLNSRTRKNYLAWYQQKPGQPPKLLIYWASTRESGVPDRFSGSGSGTDFTLTISSLQAEDVAVYYCTQSFILRTFGQGTKVEIKR and report it.
Result string: 12300

Query string: Find the recorded MFI_Max belonging to 5-40.21 human-murine chimeric antibody (antibody, human IgG1, kappa, V domains shown, Human IgG1 chimera) VH: QVQLQQPGSELVRPGASVKLSCKASGYTFTSYWMHWVKQRPGQGLEWIGNTYPGSGSTNYDEKFKSKATLTVDSSSSTAYMQLSSLTSEDSAVYYCTRDRYGVYYFDYWGQGTTLTVSS VL: DIVMSQSPSSLAVSAGEKVTMSCKSSQSLLNSRTRKNYLAWYQQKPGQSPKLLIYWASTRESGVPDRFSGSGSGTDFTLTISSVQAEDLAVYYCTQSYNLRTFGGGTKLEIKR and report it.
Result string: 11400
